biological target: UniProt:Q5S007; assay: LRRK2 assay (Life Technologies Adapta, SelectScreen Profiling, IC50); assay type: biochemical; settings: selectivity ratio LRRK2 IC50 over JAK1 Ki
Sequence (Q5S007 970-2527 limits assumed): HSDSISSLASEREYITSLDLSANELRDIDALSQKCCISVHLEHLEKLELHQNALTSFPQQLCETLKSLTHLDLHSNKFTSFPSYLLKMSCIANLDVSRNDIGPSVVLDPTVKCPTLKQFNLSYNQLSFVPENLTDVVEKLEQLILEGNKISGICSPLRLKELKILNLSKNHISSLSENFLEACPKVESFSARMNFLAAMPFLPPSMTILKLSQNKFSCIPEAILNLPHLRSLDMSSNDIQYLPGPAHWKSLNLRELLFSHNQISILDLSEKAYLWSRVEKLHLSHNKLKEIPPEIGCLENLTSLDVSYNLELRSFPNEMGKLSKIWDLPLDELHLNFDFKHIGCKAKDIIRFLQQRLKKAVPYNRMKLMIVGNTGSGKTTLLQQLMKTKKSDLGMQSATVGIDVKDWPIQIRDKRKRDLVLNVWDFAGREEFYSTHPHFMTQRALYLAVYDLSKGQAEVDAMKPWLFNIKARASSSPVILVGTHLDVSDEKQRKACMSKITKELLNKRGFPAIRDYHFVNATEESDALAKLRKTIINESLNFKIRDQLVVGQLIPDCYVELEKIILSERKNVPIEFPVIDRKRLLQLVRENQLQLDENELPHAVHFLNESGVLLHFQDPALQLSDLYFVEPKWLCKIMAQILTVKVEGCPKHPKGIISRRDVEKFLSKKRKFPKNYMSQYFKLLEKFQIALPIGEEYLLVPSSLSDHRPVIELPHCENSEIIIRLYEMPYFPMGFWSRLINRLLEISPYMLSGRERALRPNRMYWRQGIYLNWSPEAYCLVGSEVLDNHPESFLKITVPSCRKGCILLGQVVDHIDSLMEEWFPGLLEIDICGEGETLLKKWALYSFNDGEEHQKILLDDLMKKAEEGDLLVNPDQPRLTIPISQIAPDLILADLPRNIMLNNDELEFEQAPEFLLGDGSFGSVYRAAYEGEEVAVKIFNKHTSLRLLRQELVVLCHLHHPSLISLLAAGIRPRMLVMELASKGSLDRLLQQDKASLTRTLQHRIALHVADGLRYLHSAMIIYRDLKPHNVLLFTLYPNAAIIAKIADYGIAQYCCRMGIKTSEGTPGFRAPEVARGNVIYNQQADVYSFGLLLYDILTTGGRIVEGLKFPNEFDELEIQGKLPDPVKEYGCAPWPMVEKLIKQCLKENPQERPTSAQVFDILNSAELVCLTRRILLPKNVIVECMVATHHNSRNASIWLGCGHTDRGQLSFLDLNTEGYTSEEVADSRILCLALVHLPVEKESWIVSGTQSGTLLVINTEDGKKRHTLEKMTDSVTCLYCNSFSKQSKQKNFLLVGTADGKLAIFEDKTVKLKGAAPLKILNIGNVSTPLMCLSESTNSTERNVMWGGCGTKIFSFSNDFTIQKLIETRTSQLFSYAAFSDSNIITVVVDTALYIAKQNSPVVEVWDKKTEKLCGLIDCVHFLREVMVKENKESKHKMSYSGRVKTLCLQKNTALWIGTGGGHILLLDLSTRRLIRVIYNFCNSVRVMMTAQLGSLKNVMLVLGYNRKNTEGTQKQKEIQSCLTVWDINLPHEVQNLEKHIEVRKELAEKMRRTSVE
MEASUREMENT_NAME: Ratio (LRRK 2 IC50: JAK1 Ki)

Reference set (4 entries):
>  <COMPOUND>
CSc1ccc(OC(F)F)c(-c2nn(CC(=O)N3CCC(CN4CCN(CC(=O)N(C)C)CC4)CC3)cc2NC(=O)c2cnn3cccnc23)c1 [L]

>  <MEASUREMENT_NAME>
Ratio (LRRK 2 IC50: JAK1 Ki)

>  <VALUE>
6453

$$$$
>  <COMPOUND>
COC(=O)N1CCN(CC2CCN(C(=O)Cn3cc(NC(=O)c4cnn5cccnc45)c(-c4cc(SC)ccc4OC(F)F)n3)CC2)CC1 [J]

>  <MEASUREMENT_NAME>
Ratio (LRRK 2 IC50: JAK1 Ki)

>  <VALUE>
8167

$$$$
>  <COMPOUND>
O=C(Nc1cn(C2CCOCC2)nc1-c1cc(Cl)ccc1OC(F)F)c1cnn2cccnc12 [C, reference compound]

>  <MEASUREMENT_NAME>
Ratio (LRRK 2 IC50: JAK1 Ki)

>  <VALUE>
1493

$$$$
>  <COMPOUND>
CSc1ccc(OC(F)F)c(-c2nn(C)cc2NC(=O)c2cnn3cccnc23)c1 [D]

>  <MEASUREMENT_NAME>
Ratio (LRRK 2 IC50: JAK1 Ki)

>  <VALUE>
1485

$$$$

1. CSc1ccc(OC(F)F)c(-c2nn(CC(=O)N3CCC(N4CCOCC4)CC3)cc2NC(=O)c2cnn3cccnc23)c1 [N]
2. CC(C)(O)Cn1cc(NC(=O)c2cnn3cccnc23)c(-c2cc(Cl)ccc2OC(F)F)n1 [B, reference compound]
Ask | Between 1 and 2 , whose measured Ratio (LRRK 2 IC50: JAK1 Ki) reads higher? // output: label of the selected item
Reply | 1
(1: 6379, 2: 1078)
